Tested on: proliferating neural precursor cells in the hippocampus (subgranular layer of the dentate gyrus)
assay-text: standard in vivo hippocampal neurogenesis assay (BrdU labelling, week-long intracranial mini-pump infusion)
Parameters: species or system mouse (C57/B6)
experimental-conditions: 10 μM concentration, seven days of infusion at 0.5 μL/hour, daily IP BrdU; four 12 week old adult male C57/B6 mice; vehicle 14.5
Procedure: Compounds were administered at a concentration of 10 μM for each molecule. After seven days of infusion at a constant rate of 0.5 μL/hour, a total of 84 μL of volume will have left the pump (0.00084 μMoles) and entered the cerebrospinal fluid. […] Compounds were evaluated for pro-neurogenic efficacy/neuroprotection in a standard in vivo hippocampal neurogenesis assay at 10 μM concentration in four 12 week old adult male C57/B16 mice.
I'd appreciate it if you could supply (×10^−06) BrdU+ cells/mm^3 dentate gyrus values for the items below.

compound	(×10^−06) BrdU+ cells/mm^3 dentate gyrus
Cn1c2ccc(Br)cc2c2cc(Br)ccc21	24.2 (×10^−06) BrdU+ cells/mm^3
O=c1[nH]c(=O)c2[nH]c3ccc(Br)cc3c2[nH]1	35.4 (×10^−06) BrdU+ cells/mm^3
N[C@@H](Cc1c[nH]c2ccccc12)C(=O)O [P7C3-S248, L-tryptophan, reference compound]	20.1 (×10^−06) BrdU+ cells/mm^3
CCCCCCN(CCCCCC)C(=O)Cc1c(-c2ccc(F)cc2)[nH]c2ccccc12 [P7C3-S201, reference compound]	24.8 (×10^−06) BrdU+ cells/mm^3
CCC(C)N(C)C(=O)c1cc2ccccc2c(-c2ccccc2Cl)n1 (stereo not shown) [P7C3-S200, PK 11195, reference compound]	22.1 (×10^−06) BrdU+ cells/mm^3
CCOC(=O)C1=C[C@]2(CC)CCCN3CCc4c(n1c1ccccc41)[C@@H]32 [P7C3-S199, Vinpocetine, reference compound]	26.5 (×10^−06) BrdU+ cells/mm^3

Query compound follows.
// fetch (×10^−06) BrdU+ cells/mm^3 dentate gyrus given entry COc1cccc(NCC(O)CN2c3ccc(Br)cc3CCc3cc(Br)ccc32)c1 (stereo not shown)
28.3 (×10^−06) BrdU+ cells/mm^3

----------
Tested on: proliferating neural precursor cells in the hippocampus (subgranular layer of the dentate gyrus)
assay-text: standard in vivo hippocampal neurogenesis assay (BrdU labelling, week-long intracranial mini-pump infusion)
Design: species or system mouse (C57/B6)
experimental-conditions: 10 μM concentration, seven days of infusion at 0.5 μL/hour, daily IP BrdU; four 12 week old adult male C57/B6 mice; vehicle 14.5
observation-type: (×10^−06) BrdU+ cells/mm^3 dentate gyrus

Sample records with (×10^−06) BrdU+ cells/mm^3 dentate gyrus:
molecule	observation-type	result
N#CCn1c2ccc(Br)cc2c2cc(Br)ccc21	(×10^−06) BrdU+ cells/mm^3 dentate gyrus	23.4 (×10^−06) BrdU+ cells/mm^3
OC(CNc1cccc2ccccc12)Cn1c(-c2ccccc2)cc2ccccc21 (centres unmarked)	(×10^−06) BrdU+ cells/mm^3 dentate gyrus	25.1 (×10^−06) BrdU+ cells/mm^3
Brc1ccc2[nH]c3ccc(Br)cc3c2c1	(×10^−06) BrdU+ cells/mm^3 dentate gyrus	25.2 (×10^−06) BrdU+ cells/mm^3
Cc1c(C)c2c(c(C)c1O)CC[C@@](C)(CCC[C@H](C)CCC[C@H](C)CCCC(C)C)O2 [P7C3-S267, (+)-a-tocopherol, reference compound]	(×10^−06) BrdU+ cells/mm^3 dentate gyrus	21.4 (×10^−06) BrdU+ cells/mm^3
CC(C)CCC[C@@H](C)[C@H]1CC[C@H]2[C@@H]3CCC4=CC(=NO)CC[C@]4(C)[C@H]3CC[C@]12C [P7C3-S266, Cholest-4-en-3-one, oxime, reference compound]	(×10^−06) BrdU+ cells/mm^3 dentate gyrus	42.3 (×10^−06) BrdU+ cells/mm^3

Hey, quick one: what's (×10^−06) BrdU+ cells/mm^3 dentate gyrus for each of these?
1. Cc1ccc2[nH]c3ccc(C)cc3c2c1
2. CN(C)c1nc(O)c2[nH]c3ccccc3c2n1

["23.5 (×10^−06) BrdU+ cells/mm^3", "32.4 (×10^−06) BrdU+ cells/mm^3"]

Hey, quick one: what's (×10^−06) BrdU+ cells/mm^3 dentate gyrus for each of these?
1. [N-]=[N+]=NCC(F)Cn1c2ccc(Br)cc2c2cc(Br)ccc21 (centres unmarked)
2. OC(CN1c2ccccc2CCc2ccccc21)CN1c2ccccc2CCc2ccccc21
3. CC(C(=O)O)n1c2ccc(Br)cc2c2cc(Br)ccc21 (centres unmarked)
4. CCCN(CCC)C(=O)Cc1c(-c2ccc(Cl)cc2)nc2ccc(Cl)cn12 [P7C3-S265, reference compound]
5. O=C(O)CN1c2ccccc2CCc2ccccc21

1: 13.7 (×10^−06) BrdU+ cells/mm^3; 2: 22.4 (×10^−06) BrdU+ cells/mm^3; 3: 23 (×10^−06) BrdU+ cells/mm^3; 4: 29.3 (×10^−06) BrdU+ cells/mm^3; 5: 21.4 (×10^−06) BrdU+ cells/mm^3

Hey, quick one: what's (×10^−06) BrdU+ cells/mm^3 dentate gyrus for each of these?
1. COc1ccc(S(=O)(=O)N(CC(F)Cn2c3ccc(Br)cc3c3cc(Br)ccc32)c2cccc(OC)c2)cc1 (centres unmarked)
2. O=C(Cn1c2ccc(Br)cc2c2cc(Br)ccc21)NS(=O)(=O)c1ccccc1
3. CNCC(O)CN1c2ccccc2CCc2ccccc21 (centres unmarked)
4. N#Cc1[nH]c2ccccc2c1N
5. COc1cccc(N(CC(O)Cn2c3ccc(Br)cc3c3cc(Br)ccc32)S(=O)(=O)c2ccccc2)c1 (centres unmarked)

["29.8 (×10^−06) BrdU+ cells/mm^3", "30.5 (×10^−06) BrdU+ cells/mm^3", "14.5 (×10^−06) BrdU+ cells/mm^3", "32.1 (×10^−06) BrdU+ cells/mm^3", "33.2 (×10^−06) BrdU+ cells/mm^3"]
